fold change of affinity for assorted binders
target-entity: T1, Human CD3eg linker (human)
T1 construct: single-chain construct; also called recombinant human CD3
T1 chain: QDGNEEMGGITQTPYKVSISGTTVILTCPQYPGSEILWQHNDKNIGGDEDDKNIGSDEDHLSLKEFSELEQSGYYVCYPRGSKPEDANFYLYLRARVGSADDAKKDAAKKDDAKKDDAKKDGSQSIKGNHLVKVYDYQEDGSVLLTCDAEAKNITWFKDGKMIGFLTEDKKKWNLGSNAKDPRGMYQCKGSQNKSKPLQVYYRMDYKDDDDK
assay-remarks: SPR, vs unmutated H183/L072
// units = fold; emit number, no label

{"binder": "dBBDu183H L100dK/dBBDu072L (antibody, name in Kabat numbering, V domains shown) VH: QVQLVESGGGLVQPGRSLRLSCAASGFTFSNAWMHWVRQAPGKGLEWVAQIKDKGNAYAAYYAPSVKGRFTISRDDSKNSIYLQMNSLKTEDTAVYYCHYVHYASASTVKPAFGVDAWGQGTTVTVSS VL: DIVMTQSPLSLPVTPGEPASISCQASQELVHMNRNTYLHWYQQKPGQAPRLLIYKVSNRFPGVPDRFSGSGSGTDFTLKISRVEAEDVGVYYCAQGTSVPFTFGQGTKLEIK", "fold change of affinity / fold": 1.8}

Now look at this one.
Can you share its fold change of affinity? I mean this binder: dBBDu183H K64R/dBBDu072L (antibody, name in Kabat numbering, V domains shown) VH: QVQLVESGGGLVQPGRSLRLSCAASGFTFSNAWMHWVRQAPGKGLEWVAQIKDKGNAYAAYYAPSVRGRFTISRDDSKNSIYLQMNSLKTEDTAVYYCHYVHYASASTVLPAFGVDAWGQGTTVTVSS VL: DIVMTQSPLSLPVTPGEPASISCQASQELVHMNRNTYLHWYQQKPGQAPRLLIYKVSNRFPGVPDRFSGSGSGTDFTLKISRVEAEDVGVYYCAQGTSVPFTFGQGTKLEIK
0.9
